Measured Daily Body Weight by item
Tested on: mice
Assay overview: Biological Example 5: acute toxicity experiment of single oral administration in mice
Assay type: in vivo
Experimental context: Female mice; Day 1; single oral 1000 mg/Kg; Mean ± SD

Compound	Daily Body Weight
COCCN1C(=O)CCC(N2C(=O)c3ccc(F)c(N)c3C2=O)C1=O (centres unmarked)	17.5 ± 0.6 g
C[S+]([O-])CCN1C(=O)CCC(N2C(=O)c3cccc(N)c3C2=O)C1=O (centres unmarked)	18.7 ± 0.7 g
COCCN1C(=O)CCC(N2C(=O)c3cccc(NC(C)=O)c3C2=O)C1=O (centres unmarked)	18.5 ± 0.1 g
CSCCN1C(=O)CCC(N2C(=O)c3cccc(N)c3C2=O)C1=O (centres unmarked)	18.1 ± 0.2 g

Please indicate recorded Daily Body Weight of CCOCCN1C(=O)CCC(N2C(=O)c3cccc(F)c3C2=O)C1=O (centres unmarked) measured with mice.
18.7 ± 0.4 g

* * *

System: DNBS-Induced Inflammatory Bowel Disease Models in Rats
Assay overview: Biological Example 4: DNBS-induced inflammatory bowel disease models in rats
Format: in vivo, Wistar rats
Experimental context: 30 mg/Kg i.g. qd × 7; day 7
Measured Colon weight to length ratio by item
# output: bare number, implied unit mg/cm

Consider the molecule COCCN1C(=O)CCC(N2C(=O)c3cccc(N)c3C2=O)C1=O (stereo not drawn) and give its recorded Colon weight to length ratio.
106

Consider the molecule COCCN1C(=O)CCC(N2C(=O)c3cccc(O)c3C2=O)C1=O (stereo not drawn) and give its recorded Colon weight to length ratio.
105

Consider the molecule CNc1cccc2c1C(=O)N(C1CCC(=O)N(CCOC)C1=O)C2=O (stereo not drawn) and give its recorded Colon weight to length ratio.
120

Consider the molecule COCCN1C(=O)CCC(N2C(=O)c3cccc(C)c3C2=O)C1=O (stereo not drawn) and give its recorded Colon weight to length ratio.
99

Consider the molecule COCCN1C(=O)CCC(F)(N2C(=O)c3cccc(N)c3C2=O)C1=O (stereo not drawn) and give its recorded Colon weight to length ratio.
102

Consider the molecule COCCN1C(=O)CCC(N2C(=O)c3c(N)ccc(O)c3C2=O)C1=O (stereo not drawn) and give its recorded Colon weight to length ratio.
93

Consider the molecule COCCN1C(=O)CCC(N2C(=O)c3ccc(O)c(N)c3C2=O)C1=O (stereo not drawn) and give its recorded Colon weight to length ratio.
106

Consider the molecule C[S+]([O-])CCN1C(=O)CCC(N2C(=O)c3cccc(N)c3C2=O)C1=O (stereo not drawn) and give its recorded Colon weight to length ratio.
92

Consider the molecule COCCN1C(=O)CCC(N2C(=O)c3c(F)c(F)c(F)c(F)c3C2=O)C1=O (stereo not drawn) and give its recorded Colon weight to length ratio.
99

* * *

Measured Daily Body Weight by item
Test system: mice
Assay overview: Biological Example 5: acute toxicity experiment of single oral administration in mice
Format: in vivo
Experimental context: Female mice; Day 5; single oral 1000 mg/Kg; Mean ± SD
# output: bare number, implied unit g

# count of solved cases: 8
Molecule	Unit spec	Daily Body Weight
COCCN1C(=O)CCC(N2C(=O)c3cccc(C)c3C2=O)C1=O (stereo not drawn)	g	24.3
CSCCN1C(=O)CCC(N2C(=O)c3cccc(N)c3C2=O)C1=O (stereo not drawn)	g	23.5
CCOCCN1C(=O)CCC(N2C(=O)c3cccc(F)c3C2=O)C1=O (stereo not drawn)	g	23.0
COCCN1C(=O)CCC(N2C(=O)c3cccc(F)c3C2=O)C1=O (stereo not drawn)	g	24.7
COCCCN1C(=O)CCC(N2C(=O)c3cccc(N)c3C2=O)C1=O (stereo not drawn)	g	22.7
COCCN1C(=O)CCC(N2C(=O)c3c(N)ccc(O)c3C2=O)C1=O (stereo not drawn)	g	22.9
COCCN1C(=O)CCC(N2C(=O)c3cccc(NC(C)=O)c3C2=O)C1=O (stereo not drawn)	g	25.3
COCCN1C(=O)CCC(N2C(=O)c3ccc(F)c(N)c3C2=O)C1=O (stereo not drawn)	g	22.8

Would you kindly look at the next entry?
Consider the molecule Nc1cccc2c1C(=O)N(C1CCC(=O)N(CCO)C1=O)C2=O (stereo not drawn) and give its recorded Daily Body Weight.
22.3

* * *

Test system: DNBS-Induced Inflammatory Bowel Disease Models in Rats
Assay overview: Biological Example 3: DNBS-induced inflammatory bowel disease models in rats
Assay type: in vivo, Wistar rats
Experimental context: Day 0; 30 mg/Kg i.g. qd × 7; Mean ± SD
Measure name: Body weight (g)
# output: bare number, implied unit g

# count of solved cases: 5
Compound	Unit spec	Value measured
COCCN1C(=O)CCC(N2C(=O)c3ccc(N)cc3C2=O)C1=O (stereo not shown) [Example 7]	g	136.1
COCCN1C(=O)CCC(N2C(=O)c3cccc(F)c3C2=O)C1=O (stereo not shown) [Example 4]	g	137.1
COCCN1C(=O)CCC(N2C(=O)c3cccc(N)c3C2=O)C1=O (stereo not shown) [Example 27]	g	135.4
COCCCN1C(=O)CCC(N2C(=O)c3cccc(NC(C)=O)c3C2=O)C1=O (stereo not shown) [Example 16]	g	137.3
Nc1cccc2c1C(=O)N(C1CCC(=O)N(CCO)C1=O)C2=O (stereo not shown) [Example 6]	g	137.5

Consider the compound COCCN1C(=O)CCC(N2C(=O)c3ccc(F)cc3C2=O)C1=O (stereo not shown) [Example 21] and give its recorded Body weight.
135.6

Consider the compound COCCCCN1C(=O)CCC(N2C(=O)c3cccc(N)c3C2=O)C1=O (stereo not shown) [Example 22] and give its recorded Body weight.
137.5

* * *

System: mice
Assay overview: Biological Example 5: acute toxicity experiment of single oral administration in mice
Assay type: in vivo
Experimental context: Female mice; Day 1; single oral 1000 mg/Kg; Mean ± SD
Measured Daily Body Weight by item
# output: bare number, implied unit g

Compound	Daily Body Weight / g
COCCN1C(=O)CCC(N2C(=O)c3cccc(O)c3C2=O)C1=O (stereo not drawn)	19.1
COCCCN1C(=O)CCC(N2C(=O)c3ccc(N)cc3C2=O)C1=O (stereo not drawn)	18.4
Nc1cccc2c1C(=O)N(C1CCC(=O)N(CCO)C1=O)C2=O (stereo not drawn)	17.5

Consider the compound COCCN1C(=O)CCC(N2C(=O)c3ccc(O)c(N)c3C2=O)C1=O (stereo not drawn) and give its recorded Daily Body Weight.
18.9

Consider the compound CS(=O)(=O)CCN1C(=O)CCC(N2C(=O)c3cccc(N)c3C2=O)C1=O (stereo not drawn) and give its recorded Daily Body Weight.
18.8

Consider the compound CCOCCN1C(=O)CCC(N2C(=O)c3cccc(N)c3C2=O)C1=O (stereo not drawn) and give its recorded Daily Body Weight.
18.0

* * *

Measured Daily Body Weight by item
Test system: mice
Assay overview: Biological Example 5: acute toxicity experiment of single oral administration in mice
Type: in vivo
Experimental context: Male mice; Day 5; single oral 1000 mg/Kg; Mean ± SD
# output: bare number, implied unit g

Compound	Assay system	Daily Body Weight / g
Nc1cccc2c1C(=O)N(C1CCC(=O)N(CCO)C1=O)C2=O (stereo not drawn) [Example 6]	mice	25.9

Consider the compound COCCN1C(=O)CCC(N2C(=O)c3ccc(F)c(N)c3C2=O)C1=O (stereo not drawn) [Example 9] and give its recorded Daily Body Weight.
27.2

Consider the compound COCCCN1C(=O)CCC(N2C(=O)c3cccc(F)c3C2=O)C1=O (stereo not drawn) [Example 17] and give its recorded Daily Body Weight.
26.1

* * *

Tested on: mice
Assay overview: Biological Example 5: acute toxicity experiment of single oral administration in mice
Type: in vivo
Experimental context: Male mice; Day 2; single oral 1000 mg/Kg; Mean ± SD
Measure name: Daily Body Weight (g)
# output: bare number, implied unit g

# count of solved cases: 3
Molecule	Assay system	Measure name	Value measured
COCCN1C(=O)CCC(N2C(=O)c3c(N)ccc(O)c3C2=O)C1=O (stereo not shown)	mice	Daily Body Weight	24.4
CSCCN1C(=O)CCC(N2C(=O)c3cccc(N)c3C2=O)C1=O (stereo not shown)	mice	Daily Body Weight	23.7
COCCN1C(=O)CCC(N2C(=O)c3ccc(F)c(N)c3C2=O)C1=O (stereo not shown)	mice	Daily Body Weight	23.6

Consider the molecule CS(=O)(=O)CCN1C(=O)CCC(N2C(=O)c3cccc(N)c3C2=O)C1=O (stereo not shown) and give its recorded Daily Body Weight.
23.1

* * *

System: mice
Assay overview: Biological Example 5: acute toxicity experiment of single oral administration in mice
Format: in vivo
Experimental context: Female mice; Day 3; single oral 1000 mg/Kg; Mean ± SD
Measured Daily Body Weight by item
# output: bare number, implied unit g

Please indicate recorded Daily Body Weight of COCCN1C(=O)CCC(N2C(=O)c3c(N)ccc(O)c3C2=O)C1=O (centres unmarked) [Example 10] measured with mice.
22.4

Please indicate recorded Daily Body Weight of COCCCN1C(=O)CCC(N2C(=O)c3ccc(N)cc3C2=O)C1=O (centres unmarked) [Example 18] measured with mice.
23.8

Please indicate recorded Daily Body Weight of CS(=O)(=O)CCN1C(=O)CCC(N2C(=O)c3cccc(N)c3C2=O)C1=O (centres unmarked) [Example 13] measured with mice.
21.8

Please indicate recorded Daily Body Weight of COCCCN1C(=O)CCC(N2C(=O)c3cccc(N)c3C2=O)C1=O (centres unmarked) [Example 26] measured with mice.
22.1

Please indicate recorded Daily Body Weight of COCCN1C(=O)CCC(N2C(=O)c3cccc(C)c3C2=O)C1=O (centres unmarked) [Example 24] measured with mice.
23.4
